Source listed as patent US12144808B2.

- protocolNotes: Example 2: pharmacokinetics of oral dosing in dogs
- Type: in vivo
- testConditions: both sexes, beagle, dog, plasma, oral capsules, tosylate salt, 5 mg/kg
propertyMeasured: Cmax (ng/mL)
Numbers only, in ng/mL.

What value of measured Cmax is listed for "CN1CCN2c3c(cccc31)[C@@H]1CN(CCCC(=O)c3ccc(F)cc3)CC[C@@H]12" ? 7.72

====

- protocolNotes: Example 2: pharmacokinetics of oral dosing in dogs
- Assay type: in vivo
- testConditions: both sexes, beagle, dog, plasma, oral capsules, tosylate salt, 2.5 mg/kg
propertyMeasured: Tmax (min)
One number for each entry, in min.

What value of measured Tmax is listed for "CN1CCN2c3c(cccc31)[C@@H]1CN(CCCC(=O)c3ccc(F)cc3)CC[C@@H]12" ? 28.1
